Listed here are compounds together with their documented melting point.

Worked set:
CC(C)Cc1nn(C)c(=O)c2cc(Cc3c(F)cccc3Cl)sc12 ... 85 to 86 °C
O=C(NCc1ccccc1)c1ccc2cnccc2n1 ... 113 to 115 °C
COc1ccccc1NC(=O)Nc1nc(Nc2ccccc2-c2ccccc2)nc(N(CCC(=O)O)Cc2cccc(F)c2)n1 ... 115 to 128 °C

Entry O=C1c2cccc3cc4ccccc4c(c23)C(=O)N1CCCNCCCN1C(=O)c2cccc3cc4ccccc4c(c23)C1=O : reported melting point = ?
184 °C

Entry CCOC(=O)C1C(=O)C(C(=O)c2ccc(Cl)cc2[N+](=O)[O-])C(=O)CC1CC(C)SCC (stereo not given) : reported melting point = ?
102 to 104 °C

Entry O=C(O)c1cc(NCc2c(F)c(F)c(C(F)(F)F)c(F)c2F)ccc1Br : reported melting point = ?
70 °C

Entry C=C1CC2C(CCC3(C)C2CCC3(OC)C(=O)COC(C)=O)C2(C)CCC(=O)C=C12 (stereo not given) : reported melting point = ?
142 to 143 °C

Entry CCn1cc(C(=O)O)c(=O)c2c1SC(=NOCC(=O)O)C2 : reported melting point = ?
249 to 250 °C

Entry CC(=O)OC1CSC(Oc2cccnc2-c2cccnc2)C(OC(C)=O)C1OC(C)=O (stereo not given) : reported melting point = ?
70 °C

Entry O=c1[nH]c2ccc(CCCN3CCC(Cc4ccc(F)cc4)CC3)cc2o1 : reported melting point = ?
105 to 107 °C

Entry CCOCc1cc2c(N)cccc2cn1 : reported melting point = ?
95 °C

Entry NCc1cc2cc(Cl)cc(-c3ccccc3)c2o1 : reported melting point = ?
> 225 °C

Entry C=CCNC(=Nc1ccc(-c2c[nH]cn2)cc1)S(=O)(=O)O : reported melting point = ?
183 to 184 °C

Entry N#Cc1nn(-c2c(Cl)cc(C(F)(F)F)cc2Cl)c(SCc2ccccc2)c1S(=O)(=O)C(F)(F)F : reported melting point = ?
117 to 119 °C

Entry Cc1cc2c(c(C)c1O)OC[C@@H](N1CCC(O)(c3ccc(F)cc3)CC1)[C@H]2O (relative stereo) : reported melting point = ?
226 to 227 °C

Entry CCOC(=O)Cc1cc(Br)c(C(=O)c2ccc(C)cc2)n1C : reported melting point = ?
85 to 87 °C

Entry NS(=O)(=O)c1ccc(C2=C(c3ccc(Cl)cc3)CCC2)cc1 : reported melting point = ?
177 to 178 °C

Entry CC(=Cc1ccc(F)cc1)c1ccc2c(c1)C(C)(C)CCC2(C)C : reported melting point = ?
99 to 101 °C

Entry Clc1ccc2c(c1)C(NC1=NCCS1)CCC2 (stereo not given) : reported melting point = ?
164 to 166 °C

Entry CCCCNC(=O)NCC1CCN(c2ncnc3cc(OC)c(OC)cc23)CC1 : reported melting point = ?
141 to 143 °C

Entry CN1CC(=O)N(c2ccc(C#N)c(C(F)(F)F)c2)C1=S : reported melting point = ?
220 to 221 °C

Entry CCOC(=O)C(C)(C)n1c(=O)[nH]c2ccccc2c1=O : reported melting point = ?
133 to 134 °C

Entry CCOC(=O)NN=C(c1ccccc1)c1ccncc1 : reported melting point = ?
189 °C

* * *

Listed here are molecules together with their documented melting point.

Worked set:
CC(C)CCCC(C)C1CCC2C3CC4(OCCO4)C4CCCC(O)C4(C)C3CCC12C (stereo not given) ... 96 to 98 °C
OCC1COC(Cn2cncn2)(c2ccc(Oc3ccccc3)cc2)O1 (stereo not given) ... 111 to 112 °C
CC(C)(C)C(=O)N(O)Cc1ccccc1Cl ... 100 to 102 °C
CN(C)C=CC(=O)c1cccc(NC(=O)C2CCC2)c1 ... 155 to 157 °C

Moving on to the next molecule.
Entry CC(C)N(C[C@H](O)[C@H](Cc1ccccc1)NC(=O)[C@H](CC(N)=O)NC(=O)c1ccccn1)NC(=O)OC(C)(C)C : reported melting point = ?
101 to 108 °C
